Sourced from PubChem BioAssay AID485314

Measured on: DNA polymerase beta (Homo sapiens) (UniProt P06746)
Experiment notes: qHTS Assay for Inhibitors of DNA Polymerase Beta
Experimental parameters: Pol beta primer extension/strand displacement, fluorescence kinetic; series mostly up to 114 µM
Method: The base excision repair system in human cells is a target for therapeutic modulation of the response to irradiation treatment and DNA-damaging drugs. […] A stepwise description of the 1536-well assay is shown in next Table. […] The plates were incubated for 15 min at room temperature, and 1 uL substrate (50 nM final concentration) were added to start the reaction and immediately read at 0 min read on Viewlux reader. […]
Out of some 340,000 compounds screened, about 4,500 (1.3%) were called active. Another 5% or so got no clear call; they are omitted. Calls come from the whole dose curve; as a rule, active = well fitted inhibition curve with a large enough effect; inconclusive = small, poorly fitted or top-dose-only effect, or another doubt; inactive = no such curve, though single readings can be large or run the other way. Only a selection was taken, and actives are over-represented in it overall.
Give one outcome, nothing more. List: active, inactive

Examples with answers:
Task item: Which result was noted for this compound in the test: O=C(COC(=O)c1cnc(Cl)c(Cl)c1)NCc1ccco1
Reply: active

Task item: Which result was noted for this compound in the test: O=C(COC(=O)c1cc(S(=O)(=O)N2CCCCC2)ccc1Cl)NCc1ccco1
Reply: inactive

Task item: Which result was noted for this compound in the test: Brc1ccc2c(c1)NC(c1cccnc1)=NC(c1ccccc1)=N2
Reply: inactive

Task item: Which result was noted for this compound in the test: O=C(CC1CCCCC1)NCc1ccco1
Reply: inactive

Task item: Which result was noted for this compound in the test: C=CCOc1ccc(/C=C2\SC(=S)N(CCC(=O)O)C2=O)cc1
Reply: inactive

***
Task item: Which result was noted for this compound in the test: Cc1cc(C(=O)OCC(=O)N2c3ccccc3NC(=O)C2(C)C)c(C)n1-c1ccccc1
Reply: inactive

Task item: Which result was noted for this compound in the test: CC(C)(C)c1ccc(OCC(=O)N2CCC(c3nc4ccccc4s3)CC2)cc1
Reply: inactive

Task item: Which result was noted for this compound in the test: Cc1ccc2nc(-c3ccncc3)cc(C(=O)Nc3ccc(OC(F)F)cc3)c2c1
Reply: active

Task item: Which result was noted for this compound in the test: CCOc1ccc2[nH]c(C(=O)N/N=C/c3cccc(OC)c3OC)cc2c1
Reply: inactive

Task item: Which result was noted for this compound in the test: O=C(COC(=O)c1ccco1)NCc1ccc(Cl)cc1
Reply: inactive

Task item: Which result was noted for this compound in the test: CCn1c(C)c(C)c2cc(C(=O)NCCc3cc(OC)ccc3OC)ccc21
Reply: inactive

Task item: Which result was noted for this compound in the test: O=C(CSc1ncc(-c2ccccc2)[nH]1)Nc1ccc(F)cc1F
Reply: inactive

Task item: Which result was noted for this compound in the test: O=C(NCCCCCCNC(=O)NCc1ccco1)NCc1ccco1
Reply: inactive

Task item: Which result was noted for this compound in the test: CN(c1ccccc1)S(=O)(=O)c1ccc(Cl)c(C(=O)OCC(=O)NCc2ccco2)c1
Reply: inactive

Task item: Which result was noted for this compound in the test: Clc1cccc(-n2ncc3c(NCCc4ccccc4)ncnc32)c1
Reply: inactive

Task item: Which result was noted for this compound in the test: COc1ccc(C)cc1Nc1nc2ccccc2c2nnc(C)n12
Reply: inactive

Task item: Which result was noted for this compound in the test: COCCCn1c(Cc2csc(Nc3cccc(Cl)c3)n2)nnc1SCC(=O)OC1CCCCC1
Reply: active
